protocol.summary: folding stability dG unfold from chymotrypsin proteolysis; higher = more stable
Entries and their measured folding stability dG unfold follow.
Number in kcal/mol, nothing else.

Some sequences with recorded folding stability dG unfold:
> print(dat)
                              sequence.data  test.value
1  SAGGMEIKEVKYDPEEGYLYIVVAAPPSVSPSEVVPAVVRAARELTGAEVEVEVDPETGYVVAKVPVSAGGS [r8_314_TrMRF]        1.92
2  SAGGMTLKIRVKDKEKALEALKALPGIEVKEVKVEKNENGELTVTVESKEALDALKKAGIEVEEIEPSAGGS [r16_381_TrROS_Hall]        3.18
3  SAGGSAGGSMRLDLDDIKRVEREPTPNGMRVYEIKLKGHKLPIRYHDNKIEISPEFKDLLKDISAGGSAGGS [r20_92_TrROS]      -0.483

Consider now this further sequence.
Give the measured folding stability dG unfold of MRVVFEATYTDPEGVPVTETFVIPEEVLEEIEREGRPITREELVELAEEIIRDYTKEHDADVEFRFVEFEPS [r1_174_TrMRF] .
2.52

###

protocol.summary: folding stability dG unfold (combined trypsin and chymotrypsin); higher = more stable
Class field: derived from folding stability dG unfold; ranges Low = under 0.6 kcal/mol, Medium = from 0.6 kcal/mol up to 3 kcal/mol, High = 3 kcal/mol and over

Study these solved cases before continuing.
> print(dat)
                              sequence.data   class
1  SAGGSASPDTRLVRIELKSNVPGTGIEVTETVPLVELEPDEPAEAVAEEVRAAHPVDEVTVTVDPASAGGSA [r15_540_JUSTAS]     Low
2  SAGGSAGGSAGGKPVKVKVVIPVPDGDEVLVLEVEVEGEGGEEAVRQALEVAAELLREGSAGGSAGGSAGGS [r10_863_TrMRF]     Low
3  SAGEFKIDILPGDNVARITSPEGSFLAPFTATFTFDVPDIADPNKIKPKPVVFNLVIEMKLDDFFDLLSSAG [r5_234_TrMRF]    High
4  SAGGSAMITLEVEVPPGNAEEAAEAVAEELAEKLGVEVTIEKVEVEYDPVTNLTRVPVEIKINPPLSAGGSA [r15_70_JUSTAS]  Medium
5  SSVSFDPATGTTTVTTTTPTGPDSPVLTTTTTTLTTNPDGTVTTTTTTTTTTVAPAAPLLTPANLALRAALS [r1_4_JUSTAS]     Low

Determine which band this sequence sits in: SAGGSARWFLIRIEFVFGGEPRTFSVLIDVDPGEIEIEIPPELQKKGFQIKDIEIWPLPPEDLKKLSAGGSA [r15_853_TrROS]
Medium

// next record SAGGSAGGSSAVVPLPDVVLVVLTFPDGGPPVLALLFPPTGRVVFVHPDSVTVAPFAPGGSLLSAGGSAGGS [r12_536_TrMRF]
Medium

// next record SAGGMITLTVTREDWDTVYAKLKAEKNVTVKVVKGNTWSTYPASEVKALREEIPADPNEPLTLEIVESAGGS [r16_377_JUSTAS]
Low

// next record SAGGSAGGKKIRIRIPLPDGTWVEVEVYFSEDGIYSFYIPPTGKLVLIDVGENGIKITIIDLPPSAGGSAGG [r6_58_TrMRF]
High

// next record SAGGSAGGSASMTVVVEREEITRRDPSSDELFEEEVVRATTTEKDGVIETTTLPEEEWEKLSSAGGSAGGSA [r18_406_JUSTAS]
Low

// next record SAGSAAIKALLEKHPKPEVIEVTRLPGSGTLVIKVDDEDHVVPTPPGGFTETLTVDENGNVLSVEPHPASAG [r5_329_JUSTAS]
Medium

// next record SAGGSAGGSAGGMSFPVSSVEYRKDPNSDTPLVFITLPDGTVIIERLDTGTSSVVPVSQLSAGGSAGGSAGG [r11_922_JUSTAS]
Medium

// next record SAGGSEEIKKLLASGQLDEVIALLKKKGYENVTVTPDPRKPVVTINVTKTDPKTGKKKTTTITIPTGLSAGG [r13_359_JUSTAS]
High

// next record SAGGSAGGSAVEEEVERIEKAVGVPIDPGSSVTKVKEGVEPVLPYRMDIKPGVESPELLLLSAGGSAGGSAG [r3_427_JUSTAS]
Low
